In this section, each of the molecules is paired with its reported z-score.
- Assay Protocol: P. aeruginosa biofilm formation inhibitors, primary screen, PAO1 strain, BacTiter-Glo luminescence, LB-PBS (AID 1144)
- Experimental Parameters: 12 h, higher = more signal
Outcome Measure: z-score

Chemical String	Value Reported
COc1ccc(CCNC(=O)[C@@]2(C)c3ccccc3C(=O)N(Cc3cc(F)cc(C(F)(F)F)c3)[C@H]2c2ccc(CO)cc2)cc1	1.3
COC(=O)[C@@]1(Cc2ccccc2)[C@H]2c3cc(C(=O)N4CCCC4)n(CC4CC4)c3C[C@H]2CN1C(=O)c1ccccc1	0.798
COCCOC(=O)N1C(=O)[C@@]2(c3cc(C#CCCO)ccc31)[C@H](c1ccc(OCCO)cc1)N1[C@H](c3ccccc3)[C@H](c3ccccc3)OC(=O)[C@H]1[C@@H]2C(=O)N1CCN(c2ncccn2)CC1	0.97

Each recorded value in this set is attributed to PubChem BioAssay.
